- assayed_system: Bcat-Halo (UniProt P35222)
- Sequence (P35222 whole entry): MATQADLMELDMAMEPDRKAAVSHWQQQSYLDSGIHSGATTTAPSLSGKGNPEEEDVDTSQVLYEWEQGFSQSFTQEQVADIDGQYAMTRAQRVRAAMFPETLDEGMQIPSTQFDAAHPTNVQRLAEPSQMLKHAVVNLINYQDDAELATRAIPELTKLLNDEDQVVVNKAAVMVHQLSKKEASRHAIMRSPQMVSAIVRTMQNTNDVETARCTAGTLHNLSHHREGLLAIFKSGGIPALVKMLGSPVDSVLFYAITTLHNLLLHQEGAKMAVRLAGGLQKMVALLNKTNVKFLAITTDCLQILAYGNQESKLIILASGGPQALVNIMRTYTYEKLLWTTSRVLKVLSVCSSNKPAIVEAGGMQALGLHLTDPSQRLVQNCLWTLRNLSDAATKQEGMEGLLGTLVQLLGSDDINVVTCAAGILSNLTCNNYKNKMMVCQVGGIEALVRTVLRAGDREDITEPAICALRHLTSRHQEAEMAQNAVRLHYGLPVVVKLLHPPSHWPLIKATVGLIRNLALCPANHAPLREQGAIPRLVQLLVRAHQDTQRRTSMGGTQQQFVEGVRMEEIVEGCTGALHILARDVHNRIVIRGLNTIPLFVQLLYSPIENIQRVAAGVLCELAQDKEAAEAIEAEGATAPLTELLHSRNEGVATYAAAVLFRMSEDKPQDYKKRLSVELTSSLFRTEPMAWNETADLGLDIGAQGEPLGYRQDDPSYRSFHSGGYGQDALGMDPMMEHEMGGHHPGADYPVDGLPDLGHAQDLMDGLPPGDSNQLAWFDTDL
- test_protocol: NanoBRET in HEK293 cells (Bcat-Halo / TCF4-Luc), absolute IC50; competitor: TCF4-Luc
Starred links: 1 amine or outer side, 2 acyl side, 3 side chain; linkers in the order of their positions; H or OH if unused. Positions of bridges follow the written chain, without caps; N, C: chain ends. Non-standard residues stand in square brackets, D forms with d. Primed or numbered codes have the meaning given here. PyrS2″ = (S)-3-amino-1-((pent-4-en-1-yloxy)carbonyl)pyrrolidine-3-carboxylic acid (stapling residue), C=CCCCOC(=O)N1CC[C@@](N[*:1])(C(=O)[*:2])C1; B5(4) = 2,2-bis(4-pentenyl)glycine = 2-amino-2-(pent-4-en-1-yl)hept-6-enoic acid (stitching residue), C=CCCCC(CCCC=C)(N[*:1])C(=O)[*:2]; B5(8) = 2,2-bis(4-pentenyl)glycine (2-amino-2-(pent-4-en-1-yl)hept-6-enoic acid, stitching residue), C=CCCCC(CCCC=C)(N[*:1])C(=O)[*:2]; TfeGA = (S)-2-amino-3-((carboxymethyl)(2,2,2-trifluoroethyl)amino)propanoic acid, O=C([C@H](CN(CC(=O)[*:3])CC(F)(F)F)N[*:1])[*:2]; Bta = N[C@@H](Cc1csc2ccccc12)C(=O)O; αAllylPro = C=CC[C@@]1(C(=O)O)CCCN1; tBuAla = CC(C)(C)C[C@H](N)C(=O)O; 3Thi = N[C@@H](Cc1ccsc1)C(=O)O; S8 = C=CCCCCCC[C@](C)(N)C(=O)O
Below, each entry is listed with its recorded IC50.

{"columns": ["binder", "unit_abbrev", "IC50"],
 "data": [
  ["Ac-[αAllylPro]D[tBuAla][B5(4)]DEAAFN[PyrS2″]F[Bta]Q-NH2 (staple 1-4, 4-11; not fully specified) [I-684]", "µM", 14.3],
  ["Ac-[αAllylPro]D[tBuAla][B5(4)]DEAAFN[PyrS2″][3Thi][Bta]Q-NH2 (staple 1-4, 4-11; not fully specified) [I-690]", "µM", 17.8],
  ["Ac-[αAllylPro]D[tBuAla][B5(8)]DEAAFN[PyrS2″][3Thi][Bta]H-NH2 (staple 1-4, 4-11) [I-697]", "µM", 14.7],
  ["Ac-[αAllylPro]D[tBuAla][B5(4)]DEAAFN[S8][3Thi][Bta]Q-NH2 (staple 1-4, 4-11; not fully specified) [I-683]", "µM", 6.7],
  ["Ac-[αAllylPro]DI[B5(8)]D[TfeGA]AAFN[S8][3Thi][Bta]Q-NH2 (staple 1-4, 4-11) [I-701]", "µM", 18.1],
  ["Ac-[αAllylPro]D[tBuAla][B5(4)]DEAAFN[PyrS2″]F[Bta]Q-NH2 (staple 1-4, 4-11; not fully specified) [I-685]", "µM", 19.4],
  ["Ac-[αAllylPro]D[tBuAla][B5(4)]DEAAFN[PyrS2″]F[Bta]H-NH2 (staple 1-4, 4-11; not fully specified) [I-693]", "µM", 28.5]
]}
